Target Or Test System: UniProt:P08546
Sequence (P08546 whole entry): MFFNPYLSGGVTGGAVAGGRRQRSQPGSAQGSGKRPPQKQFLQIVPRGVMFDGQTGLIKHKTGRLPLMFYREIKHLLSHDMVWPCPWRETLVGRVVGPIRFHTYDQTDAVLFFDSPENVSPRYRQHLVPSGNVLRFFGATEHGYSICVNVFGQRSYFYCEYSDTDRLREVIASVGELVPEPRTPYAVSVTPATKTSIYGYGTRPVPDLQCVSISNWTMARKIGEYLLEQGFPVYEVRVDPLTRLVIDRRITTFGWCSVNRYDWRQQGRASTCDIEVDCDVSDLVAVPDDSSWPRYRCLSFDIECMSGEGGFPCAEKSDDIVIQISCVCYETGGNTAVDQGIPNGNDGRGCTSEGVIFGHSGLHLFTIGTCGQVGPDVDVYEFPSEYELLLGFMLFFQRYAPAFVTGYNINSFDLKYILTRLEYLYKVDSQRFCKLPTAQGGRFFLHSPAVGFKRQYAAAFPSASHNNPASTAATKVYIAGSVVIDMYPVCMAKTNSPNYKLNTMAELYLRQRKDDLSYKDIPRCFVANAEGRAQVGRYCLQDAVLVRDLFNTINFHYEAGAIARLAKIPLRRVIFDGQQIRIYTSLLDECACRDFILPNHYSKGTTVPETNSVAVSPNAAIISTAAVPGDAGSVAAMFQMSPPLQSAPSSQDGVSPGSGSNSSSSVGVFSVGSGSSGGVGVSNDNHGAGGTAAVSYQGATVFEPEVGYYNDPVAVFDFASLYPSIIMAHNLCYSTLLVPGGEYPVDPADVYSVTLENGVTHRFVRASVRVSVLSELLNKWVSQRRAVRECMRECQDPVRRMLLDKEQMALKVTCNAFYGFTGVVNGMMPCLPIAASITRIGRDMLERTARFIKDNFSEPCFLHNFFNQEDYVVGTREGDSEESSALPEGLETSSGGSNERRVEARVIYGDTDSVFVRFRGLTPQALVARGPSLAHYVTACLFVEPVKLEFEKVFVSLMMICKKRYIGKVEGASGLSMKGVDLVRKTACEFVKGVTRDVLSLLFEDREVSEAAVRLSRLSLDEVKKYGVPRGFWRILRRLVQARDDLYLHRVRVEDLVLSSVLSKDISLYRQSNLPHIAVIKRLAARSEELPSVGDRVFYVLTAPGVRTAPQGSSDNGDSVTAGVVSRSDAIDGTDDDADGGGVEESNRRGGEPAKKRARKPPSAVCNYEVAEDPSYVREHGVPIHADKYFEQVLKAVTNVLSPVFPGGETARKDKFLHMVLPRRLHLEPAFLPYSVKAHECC
Assay Explanation: HCMV polymerase scintillation proximity assay (modified version)
Details: modified SPA assay, compounds diluted in 100% DMSO, 4.5 mM DTT
Measured Metric: IC50 (µM)
Write it as a number; the unit µM goes unstated.

Q: Find the recorded IC50 belonging to Cn1cc(C(=S)NCc2ccc(Cl)cc2)c(=S)c2cc(CN3CCOCC3)sc21 and report it.
Result: 0.91

====

Target Or Test System: HSV polymerase (Human herpesvirus 1, UniProt P04293)
Sequence (P04293 whole entry): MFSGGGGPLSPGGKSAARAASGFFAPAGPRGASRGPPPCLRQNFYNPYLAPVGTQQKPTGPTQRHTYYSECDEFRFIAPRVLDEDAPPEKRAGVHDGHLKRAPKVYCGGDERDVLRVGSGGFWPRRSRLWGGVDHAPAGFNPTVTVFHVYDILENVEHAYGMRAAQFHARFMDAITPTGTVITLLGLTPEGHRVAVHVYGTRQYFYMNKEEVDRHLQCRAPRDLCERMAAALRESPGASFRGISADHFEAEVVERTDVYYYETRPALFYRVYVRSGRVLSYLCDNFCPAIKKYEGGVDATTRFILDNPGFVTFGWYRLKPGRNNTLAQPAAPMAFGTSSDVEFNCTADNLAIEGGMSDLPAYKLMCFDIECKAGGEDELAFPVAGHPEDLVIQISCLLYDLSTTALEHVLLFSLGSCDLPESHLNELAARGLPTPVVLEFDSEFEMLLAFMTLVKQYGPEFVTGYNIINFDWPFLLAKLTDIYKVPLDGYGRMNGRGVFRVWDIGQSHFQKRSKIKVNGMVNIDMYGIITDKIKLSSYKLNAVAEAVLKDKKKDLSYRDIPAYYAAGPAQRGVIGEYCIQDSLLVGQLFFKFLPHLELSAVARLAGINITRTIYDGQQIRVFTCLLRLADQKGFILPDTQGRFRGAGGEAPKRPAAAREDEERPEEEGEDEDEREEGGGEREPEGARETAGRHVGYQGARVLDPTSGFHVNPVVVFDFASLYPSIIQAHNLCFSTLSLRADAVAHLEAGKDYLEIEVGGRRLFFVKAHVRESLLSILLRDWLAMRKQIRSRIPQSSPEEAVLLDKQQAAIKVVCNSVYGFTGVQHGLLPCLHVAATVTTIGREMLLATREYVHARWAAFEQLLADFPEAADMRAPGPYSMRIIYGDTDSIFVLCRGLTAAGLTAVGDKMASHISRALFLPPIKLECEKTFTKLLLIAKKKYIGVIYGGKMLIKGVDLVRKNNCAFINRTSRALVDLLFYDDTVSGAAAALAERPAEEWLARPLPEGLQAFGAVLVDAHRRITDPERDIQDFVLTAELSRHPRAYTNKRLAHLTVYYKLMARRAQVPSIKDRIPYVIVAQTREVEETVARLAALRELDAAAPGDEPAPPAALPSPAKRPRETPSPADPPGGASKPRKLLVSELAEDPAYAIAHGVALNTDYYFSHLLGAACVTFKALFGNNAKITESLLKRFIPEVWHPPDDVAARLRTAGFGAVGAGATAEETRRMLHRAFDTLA
Measured Metric: pIC50
Scale note: pIC50 = -log10(concentration in M).

Q: Find the recorded pIC50 belonging to Cn1cc(C(=S)NCc2ccc(Cl)cc2)c(=S)c2cc(CN3CCOCC3)sc21 and report it.
Result: 6.44
